Collected IC50 values appear next to each entry.
molecular target: human Bub1 (Homo sapiens (Human), UniProt O43683); assay: Bub1 high ATP kinase assay (TR-FRET); format: biochemical; details: Bub1 high ATP (2 mM) IC50, 2 mM ATP
Sequence (O43683 704-1085): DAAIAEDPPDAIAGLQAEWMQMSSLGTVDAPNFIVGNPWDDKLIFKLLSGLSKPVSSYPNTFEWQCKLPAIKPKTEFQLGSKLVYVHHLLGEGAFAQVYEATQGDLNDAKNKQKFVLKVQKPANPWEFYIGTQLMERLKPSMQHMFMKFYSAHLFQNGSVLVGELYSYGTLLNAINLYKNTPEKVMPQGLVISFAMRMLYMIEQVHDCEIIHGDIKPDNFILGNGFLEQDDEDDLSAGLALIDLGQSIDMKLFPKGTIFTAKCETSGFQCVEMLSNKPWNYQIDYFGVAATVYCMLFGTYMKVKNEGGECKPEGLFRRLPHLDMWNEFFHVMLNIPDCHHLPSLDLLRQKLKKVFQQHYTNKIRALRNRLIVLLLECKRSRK

molecule="COc1c(Cl)cc(F)cc1Nc1c(-c2ccncc2OCC2CCO2)[nH]c2c1C(=O)NCC2 (single isomer, unassigned)" tgt="human Bub1 (Homo sapiens (Human), UniProt O43683)" result="> 20 µM"
molecule="Cc1cccc(Nc2c(-c3ccncc3OCCC3CCO3)[nH]c3c2C(=O)NCC3)c1Cl (stereo not drawn)" tgt="human Bub1 (Homo sapiens (Human), UniProt O43683)" result="> 5.71 µM"

Pending molecule:
Return reported IC50. Input molecule: COc1c(Br)cccc1Nc1c(-c2ccncc2OCC2CCO2)[nH]c2c1C(=O)NCC2 (single isomer, unassigned) [Example 34]
> 20 µM

====

Collected pIC50 values appear next to each entry.
target: human Bub1 (Homo sapiens (Human), UniProt O43683); test: Bub1 high ATP kinase assay (TR-FRET); assay type: biochemical; conditions: read-out: Bub1 high ATP (2 mM) IC50; 2 mM ATP
pIC50: −log10 of the molar value.

Below: 3 compounds and their reported pIC50.
compound="COc1c(F)cccc1Nc1c(-c2ccncc2OCC2(C)CCO2)[nH]c2c1C(=O)NCC2 (single isomer, unassigned; (+)) [Example 21]" metric=pIC50 result="< 4.70"
compound="Cc1cccc(Nc2c(-c3ccncc3OCC3OCC3(C)C)[nH]c3c2C(=O)NCC3)c1Cl (racemic) [Example 58]" metric=pIC50 result="< 4.70"
compound="COc1c(F)cccc1Nc1c(-c2ccncc2OC[C@H]2CCO2)[nH]c2c1C(=O)NCC2 [Example 6]" metric=pIC50 result="< 4.88"

Pending compound:
Return reported pIC50. Input compound: COc1c(F)cccc1Nc1c(-c2ccncc2OCC2OCC2(C)C)[nH]c2c1C(=O)NCC2 (single isomer, unassigned; (-)) [Example 53]
< 4.70
